test: Plasma PK after single IV bolus dose; type: in vivo; conditions: rat, rats, read-out: clearance rate
measuredParameter: clearance

• CS(=O)(=O)c1cccc(C[C@H](NC(=O)c2c(Cl)cc3c(c2Cl)CCN(C(=O)c2ccc4ccoc4c2)C3)C(=O)O)c1 = > 6 L/h/kg

* * *

target: LFA-1 (Homo sapiens, UniProt P05107+P20701); construct: LFA-1 levels in in vitro cell assays (cell attachment and SEB IL-2 release); endogenous in cells; assay: in vitro cell assays (cell attachment and SEB IL-2 release)
Sequence (P20701 26-1170): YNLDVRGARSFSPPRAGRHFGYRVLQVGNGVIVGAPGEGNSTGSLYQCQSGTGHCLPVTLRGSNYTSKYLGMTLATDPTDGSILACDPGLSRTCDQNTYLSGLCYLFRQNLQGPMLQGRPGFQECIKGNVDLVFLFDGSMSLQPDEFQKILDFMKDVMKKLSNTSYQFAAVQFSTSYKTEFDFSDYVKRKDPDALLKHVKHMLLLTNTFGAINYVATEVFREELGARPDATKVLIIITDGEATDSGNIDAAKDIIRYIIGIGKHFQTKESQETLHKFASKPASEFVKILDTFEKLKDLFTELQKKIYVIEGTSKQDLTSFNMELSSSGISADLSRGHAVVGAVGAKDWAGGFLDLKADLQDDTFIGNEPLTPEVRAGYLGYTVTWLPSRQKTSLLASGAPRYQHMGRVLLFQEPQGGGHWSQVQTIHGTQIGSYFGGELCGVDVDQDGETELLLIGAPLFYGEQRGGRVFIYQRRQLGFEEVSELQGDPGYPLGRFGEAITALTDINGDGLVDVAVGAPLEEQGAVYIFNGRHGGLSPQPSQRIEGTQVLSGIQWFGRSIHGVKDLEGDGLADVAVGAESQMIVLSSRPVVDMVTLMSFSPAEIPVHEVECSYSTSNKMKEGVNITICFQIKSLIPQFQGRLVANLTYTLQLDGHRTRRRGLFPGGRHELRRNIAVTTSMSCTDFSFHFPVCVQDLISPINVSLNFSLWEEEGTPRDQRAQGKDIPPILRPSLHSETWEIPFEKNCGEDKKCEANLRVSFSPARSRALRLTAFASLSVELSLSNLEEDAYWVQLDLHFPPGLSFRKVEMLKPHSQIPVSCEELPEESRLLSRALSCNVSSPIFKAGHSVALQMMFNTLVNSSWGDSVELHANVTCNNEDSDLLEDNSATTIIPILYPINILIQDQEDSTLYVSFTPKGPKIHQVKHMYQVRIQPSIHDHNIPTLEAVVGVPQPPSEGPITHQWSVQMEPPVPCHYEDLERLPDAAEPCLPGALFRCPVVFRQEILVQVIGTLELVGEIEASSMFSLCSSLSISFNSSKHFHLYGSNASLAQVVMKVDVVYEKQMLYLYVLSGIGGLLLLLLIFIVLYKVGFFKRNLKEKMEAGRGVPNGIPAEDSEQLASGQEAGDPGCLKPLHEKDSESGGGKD
Sequence (P05107 23-769): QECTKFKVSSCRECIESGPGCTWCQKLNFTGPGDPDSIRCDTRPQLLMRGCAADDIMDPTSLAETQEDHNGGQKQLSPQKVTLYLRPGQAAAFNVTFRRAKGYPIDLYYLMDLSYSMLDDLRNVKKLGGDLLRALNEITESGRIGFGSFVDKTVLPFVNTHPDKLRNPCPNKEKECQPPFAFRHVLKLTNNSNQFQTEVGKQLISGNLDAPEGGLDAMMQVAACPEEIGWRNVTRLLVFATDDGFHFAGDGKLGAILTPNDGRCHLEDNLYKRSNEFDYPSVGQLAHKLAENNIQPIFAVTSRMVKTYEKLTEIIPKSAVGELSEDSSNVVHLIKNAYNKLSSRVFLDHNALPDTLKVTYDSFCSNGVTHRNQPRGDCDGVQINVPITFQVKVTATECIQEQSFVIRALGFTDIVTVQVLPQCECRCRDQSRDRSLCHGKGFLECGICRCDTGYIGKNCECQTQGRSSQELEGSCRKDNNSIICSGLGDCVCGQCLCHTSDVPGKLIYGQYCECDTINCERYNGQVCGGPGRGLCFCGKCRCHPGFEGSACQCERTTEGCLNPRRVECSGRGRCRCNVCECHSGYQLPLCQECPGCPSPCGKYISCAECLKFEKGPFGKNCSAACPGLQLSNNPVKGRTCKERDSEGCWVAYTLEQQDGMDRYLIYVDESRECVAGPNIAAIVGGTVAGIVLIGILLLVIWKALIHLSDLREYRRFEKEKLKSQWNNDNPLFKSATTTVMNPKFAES
pIC50: −log10 of the molar value.
measuredParameter: pIC50

- CS(=O)(=O)c1cccc(C[C@H](NC(=O)c2c(Cl)cc3c(c2Cl)CCN(C(=O)c2ccc4ccoc4c2)C3)C(=O)O)c1: 8.70
